Tested on: frog Retinoid X Receptor beta (RXRb), gene 394278
assay text: ATG_frRXRb_EcoTox2: Attagene TRANS-FACTORIAL EcoTox-2 HepG2 Assay for frog Retinoid X Receptor beta (RXRb)
Inconclusive results are not listed. Activity calls are given as the source filed them. How the source made its calls: active means hit-call score of the fitted dose curve at least 0.9, where 1 is the maximum; inconclusive means response in the unintended direction; inactive means score below 0.9.
Outcome codes: active, inactive

{"chemical structure": "C=C(c1ccc(C(=O)O)cc1)c1cc2c(cc1C)C(C)(C)CCC2(C)C", "label value": "active"}
{"chemical structure": "CC(C)(Oc1ccc(Cl)cc1)C(=O)O", "label value": "inactive"}
{"chemical structure": "C[C@]12C=CC(=O)C=C1CC[C@@H]1[C@@H]2C(=O)C[C@@]2(C)[C@H]1CC[C@]2(O)C(=O)CO", "label value": "inactive"}
{"chemical structure": "CC(C)OC(=O)C(C)(C)Oc1ccc(C(=O)c2ccc(Cl)cc2)cc1", "label value": "inactive"}
{"chemical structure": "Cc1cccc(Nc2cc(Cl)nc(SCC(=O)O)n2)c1C", "label value": "active"}
{"chemical structure": "C[C@@H]1C[C@H]2[C@@H]3CCC4=CC(=O)C=C[C@]4(C)[C@@]3(F)[C@@H](O)C[C@]2(C)[C@@]1(O)C(=O)COP(=O)(O)O", "label value": "inactive"}
{"chemical structure": "Cc1ccc(C)c(OCCCC(C)(C)C(=O)O)c1", "label value": "inactive"}
